# System tested: human M1 receptor (hCHRM1) (Homo sapiens, UniProt P11229)
# Construct: expressed in transfected cells; host or cells: CHO-K1
# Sequence (P11229 1-460): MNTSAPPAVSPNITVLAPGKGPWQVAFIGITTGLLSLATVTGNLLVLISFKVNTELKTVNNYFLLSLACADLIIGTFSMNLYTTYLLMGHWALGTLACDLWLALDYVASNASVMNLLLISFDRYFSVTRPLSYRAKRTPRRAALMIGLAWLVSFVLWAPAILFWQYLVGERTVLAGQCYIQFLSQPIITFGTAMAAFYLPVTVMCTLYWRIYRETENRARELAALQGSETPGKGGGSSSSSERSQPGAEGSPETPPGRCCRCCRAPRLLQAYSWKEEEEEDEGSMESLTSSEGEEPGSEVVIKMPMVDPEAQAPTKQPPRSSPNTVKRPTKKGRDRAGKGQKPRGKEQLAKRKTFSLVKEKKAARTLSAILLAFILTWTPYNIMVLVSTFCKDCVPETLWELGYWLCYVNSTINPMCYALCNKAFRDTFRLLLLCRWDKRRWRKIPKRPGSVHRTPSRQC
# Procedure summary: Measurement of M1 receptor positive allosteric modulator (M1PAM) activity (calcium fluorescence, Fluo-4, FDSS)
# Assay type: cell-based
# Setup conditions: 10 μM test compound; acetylcholine EC20 (final 0.8 nM) present; 100% = acetylcholine 1 μM, 0% = DMSO; CHO-K1 hCHRM1 cells
Structures can show the parent of a compound that is named as a salt.
For each entry below, report its activity (%) at 10 μM value.
One number for each entry, in %.

Below are worked cases with known answers.
                                   compound                             system_tested         endpoint_label  reported
0  Cc1c(Cc2ccc(-c3cn(C)nn3)cc2)cc2c(=O)n([C@H]3CCC[C@@H]3O)nnc2c1C (relative stereo) [Example 40]  human M1 receptor (hCHRM1) (Homo sapiens, UniProt P11229)  activity (%) at 10 μM        94
1  Cc1c(Cc2ccc(-n3cccn3)cc2)cc2c(=O)n([C@H]3COCC[C@@H]3O)nnc2c1C [Example 41]  human M1 receptor (hCHRM1) (Homo sapiens, UniProt P11229)  activity (%) at 10 μM       101
2  Cc1c(Cc2ccc(-c3ccn(C)n3)cc2)cc2c(=O)n([C@H]3COCC[C@@H]3O)nnc2c1C (relative stereo) [Example 46]  human M1 receptor (hCHRM1) (Homo sapiens, UniProt P11229)  activity (%) at 10 μM        97
3  Cc1c(Cc2ccc(-c3cn(C)nn3)nc2)cc2c(=O)n([C@H]3CCC[C@@H]3O)cnc2c1C (relative stereo) [Example 14]  human M1 receptor (hCHRM1) (Homo sapiens, UniProt P11229)  activity (%) at 10 μM       100
4  Cc1c(Cc2ccc(-c3cnn(C)c3)nc2)cc2c(=O)n(CC3CCCO3)cnc2c1Cl (centres unmarked) [Example 25, hydrochloride]  human M1 receptor (hCHRM1) (Homo sapiens, UniProt P11229)  activity (%) at 10 μM        95
5  Cc1c(Cc2ccc(-c3ccn(C)n3)nc2)cc2c(=O)n(CC3CCCO3)nnc2c1Cl (centres unmarked) [Example 45]  human M1 receptor (hCHRM1) (Homo sapiens, UniProt P11229)  activity (%) at 10 μM        95

Give activity (%) at 10 μM for each listed item.
1. Cc1c(Cc2ccc(-c3ccn(C)n3)nc2)cc2c(=O)n([C@H]3CCCC[C@@H]3O)cnc2c1C [Example 57]
2. Cc1c(Cc2ccc(-n3ccnc3)nc2)cc2c(=O)n([C@H]3COCC[C@@H]3O)nnc2c1C (relative stereo) [Example 42]
3. Cc1c(Cc2ccc(-c3cnn(C)c3)nc2)cc2c(=O)n(CC3CCCO3)nnc2c1C (centres unmarked) [Example 39]
4. Cc1c(Cc2ccc(-n3cccn3)cc2)cc2c(=O)n([C@H]3CCOC[C@@H]3O)nnc2c1C [Example 56]
5. Cc1c(Cc2ccc(-c3cn(C)nn3)cc2)cc2c(=O)n([C@H]3CCC[C@@H]3O)cnc2c1C (single isomer, unassigned) [Example 22]
6. Cc1c(Cc2ccc(-c3cnn(C)c3)cc2)cc2c(=O)n([C@H]3CCC[C@@H]3O)cnc2c1C (relative stereo) [Example 17]
7. Cc1c(Cc2ccc(-c3cnn(C)c3)nc2)cc2c(=O)n([C@H]3CCC[C@@H]3O)cnc2c1C (single isomer, unassigned) [Example 51]

Response line:
1: 98; 2: 100; 3: 97; 4: 98; 5: 95; 6: 90; 7: 97

Prompt line: For the compound Cc1cc2ncn([C@H]3CCC[C@@H]3O)c(=O)c2cc1Cc1ccc(-c2cn(C)nn2)cc1 (relative stereo) [Example 21] , give its measured activity (%) at 10 μM value.
Response line: 97
